experiment: Fraction unbound in rat plasma
Type: ADME, cell-free
endpoint: fraction unbound

P = Clc1ccc(CN2CCO[C@H](CCc3ccccc3)C2)cc1
Q = c1ccc(CC[C@@H]2CN(Cc3nc4ccccc4[nH]3)CCO2)cc1
Q) Compare P and Q by numeric fraction unbound and name the larger one. // caller expects the label of the chosen entry
A) Q
(Q: 0.133, P: 0.039)

====

target_desc: D(1A) dopamine receptor (Homo sapiens, UniProt P21728)
Sequence (P21728 whole entry): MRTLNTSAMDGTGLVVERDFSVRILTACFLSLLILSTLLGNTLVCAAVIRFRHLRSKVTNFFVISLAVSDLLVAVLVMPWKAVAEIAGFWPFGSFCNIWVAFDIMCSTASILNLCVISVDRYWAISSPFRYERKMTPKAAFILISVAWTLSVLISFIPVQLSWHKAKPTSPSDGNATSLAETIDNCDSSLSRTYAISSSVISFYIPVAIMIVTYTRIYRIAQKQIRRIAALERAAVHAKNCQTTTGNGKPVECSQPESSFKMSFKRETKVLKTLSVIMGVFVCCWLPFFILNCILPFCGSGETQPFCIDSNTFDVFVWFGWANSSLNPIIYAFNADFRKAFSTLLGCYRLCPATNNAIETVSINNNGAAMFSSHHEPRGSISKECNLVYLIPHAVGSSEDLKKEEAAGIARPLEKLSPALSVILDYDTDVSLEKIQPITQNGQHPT
experiment: Inhibition of human dopamine D1 receptor
pIC50: −log10 of the molar value.
endpoint: pIC50

// known answers, use as guide
The compound c1ccc(CCC2CN(Cc3nc4ccccc4[nH]3)CCO2)cc1 (racemic) , tested on D(1A) dopamine receptor (Homo sapiens, UniProt P21728), showed pIC50 of < 4.00

The compound c1ccc(CC[C@@H]2CN(Cc3nc4ccccc4[nH]3)CCO2)cc1 on D(1A) dopamine receptor (Homo sapiens, UniProt P21728): pIC50 was < 4.00

As a next step, examine the compound that follows.
Recorded pIC50 for c1ccc(CC[C@H]2CN(Cc3nc4ccccc4[nH]3)CCO2)cc1 on D(1A) dopamine receptor (Homo sapiens, UniProt P21728) was < 4.00

====

target_desc: UniProt P35462
pKi: −log10 of the molar value.
endpoint: pKi

Here is how some compounds turned out for pKi.
Form: compound = FC(F)(F)Oc1ccc(CN2CCOC(CCc3ccccc3)C2)cc1 (racemic) ; pKi = 5.56

For COc1ccc(CN2CCOC(CCc3ccccc3)C2)cc1 (racemic) the compound record lists pKi as 5.56

Entry under test: c1ccc(CC[C@H]2CN(Cc3nc4ccccc4[nH]3)CCO2)cc1 . Its pKi was 4.59

// pKi value for c1ccc(CC[C@@H]2CN(Cc3nc4ccccc4[nH]3)CCO2)cc1 : 4.80

1 = c1ccc(CCC2CN(Cc3nc4ccccc4[nH]3)CCO2)cc1 (racemic)
2 = FC(F)(F)Oc1ccc(CN2CCO[C@H](CCc3ccccc3)C2)cc1
Q) Returns: the argument ( 1 or 2 ) having the larger pKi. Your answer should be the label of the entry you select.
A) 2
(2: 5.56, 1: 4.97)

====

Target sequence: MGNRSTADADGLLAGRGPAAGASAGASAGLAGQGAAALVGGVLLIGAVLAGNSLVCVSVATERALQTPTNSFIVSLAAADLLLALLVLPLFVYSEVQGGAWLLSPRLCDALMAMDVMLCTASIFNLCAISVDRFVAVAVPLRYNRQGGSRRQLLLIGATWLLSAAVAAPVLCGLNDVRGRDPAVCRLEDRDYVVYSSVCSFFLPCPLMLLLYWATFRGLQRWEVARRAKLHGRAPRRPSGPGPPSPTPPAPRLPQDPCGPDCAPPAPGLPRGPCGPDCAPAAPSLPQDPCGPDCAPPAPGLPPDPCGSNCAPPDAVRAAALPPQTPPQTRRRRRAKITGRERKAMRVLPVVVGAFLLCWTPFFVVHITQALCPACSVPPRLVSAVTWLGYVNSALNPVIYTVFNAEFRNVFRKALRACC
endpoint: IC50 (nM)
All answers are understood in nM, so give the number only.

So, Clc1ccc(CN2CCOC(CCc3ccccc3)C2)cc1 (racemic) ? Its IC50 was 290

====

target_desc: D(1A) dopamine receptor (Homo sapiens, UniProt P21728)
experiment: Inhibition of human dopamine D1 receptor
pKi: −log10 of the molar value.
# pKi annotations

c1ccc(CC[C@H]2CN(Cc3nc4ccccc4[nH]3)CCO2)cc1 yielded pKi of < 4.00

pKi measured on c1ccc(CC[C@@H]2CN(Cc3nc4ccccc4[nH]3)CCO2)cc1 = < 4.00

Just so you know, measured pKi for c1ccc(CCC2CN(Cc3nc4ccccc4[nH]3)CCO2)cc1 (racemic) came out at < 4.00

====

target_desc: D(3) dopamine receptor (Homo sapiens, UniProt P35462)
Sequence (P35462 whole entry): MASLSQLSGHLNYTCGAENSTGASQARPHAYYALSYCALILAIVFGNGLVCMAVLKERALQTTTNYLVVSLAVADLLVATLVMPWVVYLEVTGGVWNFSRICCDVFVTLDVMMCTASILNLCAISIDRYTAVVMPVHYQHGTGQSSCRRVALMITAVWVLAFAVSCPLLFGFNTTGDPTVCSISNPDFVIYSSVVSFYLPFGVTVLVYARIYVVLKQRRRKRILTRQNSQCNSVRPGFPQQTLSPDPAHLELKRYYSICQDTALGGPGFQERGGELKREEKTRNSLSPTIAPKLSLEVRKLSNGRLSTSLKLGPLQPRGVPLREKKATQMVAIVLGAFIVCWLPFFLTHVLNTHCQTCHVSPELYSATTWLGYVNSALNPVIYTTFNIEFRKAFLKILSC
experiment: Inhibition of human dopamine D3 receptor
pIC50: −log10 of the molar value.
endpoint: pIC50

Lab book: pIC50 of c1ccc(CC[C@@H]2CN(Cc3nc4ccccc4[nH]3)CCO2)cc1 noted as 4.34

I = COc1ccc(CN2CCOC(CCc3ccccc3)C2)cc1 (racemic)
II = c1ccc(CCC2CN(Cc3nc4ccccc4[nH]3)CCO2)cc1 (racemic)
Q) Of the pair I and II , name the member with the lesser recorded pIC50. // output: label of the selected item
A) II
(II: 4.50, I: 5.09)

====

target_desc: D(4) dopamine receptor (Homo sapiens) (UniProt P21917)
experiment: Inhibition of human dopamine D4 receptor at 10 uM
endpoint: inhibition (%)

Sample answers from the record:
In plain terms, c1ccc(CCC2CN(Cc3ccccc3)CCO2)cc1 (racemic) has a documented inhibition of 74

Form field inhibition, entry FC(F)(F)Oc1cccc(CN2CCOC(CCc3ccccc3)C2)c1 (racemic) : 88

Memo: Cc1ccc(C(=O)N2CCOC(CCc3ccccc3)C2)cc1 (racemic) , reported inhibition: 17

response.value for FC(F)(F)Oc1ccc(CN2CCO[C@H](CCc3ccccc3)C2)cc1 (field: inhibition) = 96

1 = Clc1ccc(CN2CCO[C@H](CCc3ccccc3)C2)cc1
2 = c1ccc(CCC2CN(Cc3ccccn3)CCO2)cc1 (racemic)
3 = c1ccc(CCC2CN(Cc3cccnc3)CCO2)cc1 (racemic)
Q) Task field, ranking: reported inhibition, descending order. Sort the labels as requested; that list is your answer.
A) 1, 3, 2
(1: 96%, 3: 35%, 2: 23%)

====

target_desc: D(2) dopamine receptor (Homo sapiens, UniProt P14416)
Sequence (P14416 whole entry): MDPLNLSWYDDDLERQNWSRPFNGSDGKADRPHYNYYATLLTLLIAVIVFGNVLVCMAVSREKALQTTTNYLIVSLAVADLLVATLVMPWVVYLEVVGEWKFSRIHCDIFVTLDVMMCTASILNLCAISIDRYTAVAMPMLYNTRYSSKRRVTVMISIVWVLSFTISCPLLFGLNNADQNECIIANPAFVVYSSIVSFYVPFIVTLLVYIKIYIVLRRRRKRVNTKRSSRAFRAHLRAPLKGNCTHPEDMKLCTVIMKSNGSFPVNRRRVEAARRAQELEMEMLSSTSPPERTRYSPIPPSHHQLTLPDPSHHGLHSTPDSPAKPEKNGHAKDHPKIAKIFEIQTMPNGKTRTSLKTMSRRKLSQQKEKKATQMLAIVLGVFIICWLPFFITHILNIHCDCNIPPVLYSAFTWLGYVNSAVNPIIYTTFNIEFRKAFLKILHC
experiment: Inhibition of human dopamine D2L receptor
endpoint: IC50 (µM)
Report the figure in µM without appending any unit label.

Notebook: COc1ccc(CN2CCOC(CCc3ccccc3)C2)cc1 (racemic) , IC50 read as 16.5

====

target_desc: D(1B) dopamine receptor (Homo sapiens) (UniProt P21918)
Sequence (P21918 whole entry): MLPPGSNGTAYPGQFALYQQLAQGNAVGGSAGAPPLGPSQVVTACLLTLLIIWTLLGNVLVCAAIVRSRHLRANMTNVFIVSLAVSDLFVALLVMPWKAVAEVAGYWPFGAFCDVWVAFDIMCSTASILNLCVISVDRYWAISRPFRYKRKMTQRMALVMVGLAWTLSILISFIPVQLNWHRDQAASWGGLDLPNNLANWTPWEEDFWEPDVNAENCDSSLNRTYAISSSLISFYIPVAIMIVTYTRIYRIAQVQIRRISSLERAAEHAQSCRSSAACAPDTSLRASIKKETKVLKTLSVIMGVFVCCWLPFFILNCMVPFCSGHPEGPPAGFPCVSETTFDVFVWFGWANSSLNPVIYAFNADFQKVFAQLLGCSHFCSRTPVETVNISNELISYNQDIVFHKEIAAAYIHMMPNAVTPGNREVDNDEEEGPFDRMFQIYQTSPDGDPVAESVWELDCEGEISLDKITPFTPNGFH
experiment: Inhibition of human dopamine D5 receptor
endpoint: INH

Look over these answered cases.
# value of INH, D(1B) dopamine receptor (Homo sapiens) (UniProt P21918), item COc1ccc(CN2CCOC(CCc3ccccc3)C2)cc1 (racemic) = > 20 µM

INH on D(1B) dopamine receptor (Homo sapiens) (UniProt P21918) for FC(F)(F)Oc1ccc(CN2CCO[C@H](CCc3ccccc3)C2)cc1 is > 20 µM

Per the reported D(1B) dopamine receptor (Homo sapiens) (UniProt P21918) data, Clc1ccc(CN2CCO[C@H](CCc3ccccc3)C2)cc1 has INH of > 20 µM

Bench note, D(1B) dopamine receptor (Homo sapiens) (UniProt P21918): FC(F)(F)Oc1ccc(CN2CCOC(CCc3ccccc3)C2)cc1 (racemic) , INH reads > 20 µM

Okay, next one:
Test item Clc1ccc(CN2CCOC(CCc3ccccc3)C2)cc1 (racemic) ; D(1B) dopamine receptor (Homo sapiens) (UniProt P21918); reported INH was > 20 µM

====

target_desc: D(4) dopamine receptor (Homo sapiens)
experiment: Inhibition of human dopamine D4 receptor at 10 uM
endpoint: inhibition (%)

P = O=S(=O)(c1ccccc1)N1CCOC(CCc2ccccc2)C1 (racemic)
Q = Fc1ccc(CN2CCOC(CCc3ccccc3)C2)cc1 (racemic)
R = c1ccc(CCC2CN(c3ccccc3)CCO2)cc1 (racemic)
S = c1ccc(CCC2CN(Cc3ccncc3)CCO2)cc1 (racemic)
T = Fc1cccc(F)c1CN1CCOC(CCc2ccccc2)C1 (racemic)
Q) Please arrange the 5 compounds above from largest to smallest inhibition value. Field: ranking. Enter the labels in the order requested.
A) Q, T, S, R, P

====

target_desc: D(2) dopamine receptor (Homo sapiens)
experiment: Inhibition of human dopamine D2 receptor
Below, each of the molecules is paired with its reported Ki value.

Lookup result for c1ccc(CCC2CN(Cc3nc4ccccc4[nH]3)CCO2)cc1 (racemic) ; measured Ki: > 100 µM

# Ki (molecule: c1ccc(CC[C@@H]2CN(Cc3nc4ccccc4[nH]3)CCO2)cc1 ) is > 100 µM

***
Notebook: c1ccc(CC[C@H]2CN(Cc3nc4ccccc4[nH]3)CCO2)cc1 , Ki read as > 100 µM

====

target_desc: D(2) dopamine receptor (Homo sapiens)
experiment: Inhibition of human dopamine D2 receptor
The following compounds are shown together with reported IC50 values.

Measured IC50, c1ccc(CC[C@@H]2CN(Cc3nc4ccccc4[nH]3)CCO2)cc1 : > 100 µM

New cases:
Note to self: IC50 recorded for c1ccc(CC[C@H]2CN(Cc3nc4ccccc4[nH]3)CCO2)cc1 was > 100 µM

Documented IC50 of c1ccc(CCC2CN(Cc3nc4ccccc4[nH]3)CCO2)cc1 (racemic) : > 100 µM

====

target_desc: D(4) dopamine receptor (Homo sapiens) (UniProt P21917)
Sequence (whole entry): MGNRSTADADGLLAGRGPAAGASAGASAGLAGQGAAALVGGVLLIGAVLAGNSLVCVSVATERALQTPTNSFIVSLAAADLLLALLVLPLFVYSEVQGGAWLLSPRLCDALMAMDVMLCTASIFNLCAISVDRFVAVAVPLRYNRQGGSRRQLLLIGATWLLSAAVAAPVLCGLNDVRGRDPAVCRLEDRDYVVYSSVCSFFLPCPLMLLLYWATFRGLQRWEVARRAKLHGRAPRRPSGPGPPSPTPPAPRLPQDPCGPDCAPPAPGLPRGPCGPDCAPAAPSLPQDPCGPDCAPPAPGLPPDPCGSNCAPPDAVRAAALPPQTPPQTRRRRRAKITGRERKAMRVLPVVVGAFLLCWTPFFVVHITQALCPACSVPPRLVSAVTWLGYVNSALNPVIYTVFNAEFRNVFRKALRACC
experiment: Inhibition of human dopamine D4 receptor at 10 uM
endpoint: inhibition (%)

Use these answered entries as a reference point.
D(4) dopamine receptor (Homo sapiens) (UniProt P21917) data for COc1ccc(CN2CCOC(CCc3ccccc3)C2)cc1 (racemic) ; its inhibition: 98

Known value: D(4) dopamine receptor (Homo sapiens) (UniProt P21917) inhibition of the compound Cn1c(N2CCOC(CCc3ccccc3)C2)nc2ccccc21 (racemic) equals 17

D(4) dopamine receptor (Homo sapiens) (UniProt P21917) assay, compound Cc1ccccc1CN1CCOC(CCc2ccccc2)C1 (racemic) , recorded inhibition = 54

1 = Clc1ccc(CN2CCOC(CCc3ccccc3)C2)cc1 (racemic)
2 = O=C(Nc1ccc(F)cc1)N1CCOC(CCc2ccccc2)C1 (racemic)
Q) Field: entry with larger inhibition (options 1 / 2 ). Give the chosen item's label as your response.
A) 1
(1: 97%, 2: 5%)
